# system_tested: T1, ZFP SBS#293 (synthetic)
# T1 chain: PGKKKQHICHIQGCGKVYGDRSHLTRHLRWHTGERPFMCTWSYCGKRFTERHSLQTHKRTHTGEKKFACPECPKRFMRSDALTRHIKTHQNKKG
# protocol_description: EMSA
# recorded_conditions: tags: MBP fusion
property_measured: Kd (nM)
Field format: number, assumed nM, no unit text.

Item under review: GTGTGCGGC (dsDNA) DNA 1: GTGTGCGGC DNA 2: GCCGCACAC . Reported Kd?
320

These data points were gathered from patent US20030068675.
